Would you kindly list activity at 10000 µM for each of these compounds?
Target: ALT (Homo sapiens)
Construct: purchased ASAHI CHEMICAL INDUSTRIES CO., LTD; T-71
Sequence (P24298 whole entry): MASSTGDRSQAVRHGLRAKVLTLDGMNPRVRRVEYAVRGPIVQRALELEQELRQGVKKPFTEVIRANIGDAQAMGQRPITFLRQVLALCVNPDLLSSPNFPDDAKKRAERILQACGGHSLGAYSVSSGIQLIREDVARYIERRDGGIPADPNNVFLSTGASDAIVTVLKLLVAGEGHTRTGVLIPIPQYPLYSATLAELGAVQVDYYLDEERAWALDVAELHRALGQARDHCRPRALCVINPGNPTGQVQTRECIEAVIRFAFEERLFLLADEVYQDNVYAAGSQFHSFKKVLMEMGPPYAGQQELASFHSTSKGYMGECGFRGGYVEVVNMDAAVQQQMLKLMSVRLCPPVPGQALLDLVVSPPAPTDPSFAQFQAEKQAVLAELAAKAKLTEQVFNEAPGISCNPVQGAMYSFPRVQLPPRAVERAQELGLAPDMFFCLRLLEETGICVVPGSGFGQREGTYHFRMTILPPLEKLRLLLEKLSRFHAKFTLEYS
Experiment: Stabilization effect of amino acids on ALT in control substance (residual activity after storage)
Type: biochemical
Details: 96 h, BSA base; amino acid 10 mmol/L; r-ALT about 100 U/L; stored at 45°C for four days (Example 1); read-out: Residual activity (%) of ALT
Procedure: Using a human serum base and a BSA base as a medium, control substances were prepared respectively by adding, as a stabilizer, no amino acid, valine (10 mmol/L) as amino acid, proline (10 mmol/L) or other amino acid (10 mmol/L, provided that 1 mmol/L in case of tyrosine) to the respective mediums and then adding, as an enzyme, ALT (about 100 U/L). […]
Numbers only, in %.

Recorded activity at 10000 µM, per entry:
{"COMPOUND_STRING": "NC(=O)CC[C@H](N)C(=O)O", "OBS_VALUE": 15}
{"COMPOUND_STRING": "CC(C)[C@H](N)C(=O)O", "OBS_VALUE": 62}
{"COMPOUND_STRING": "N[C@@H](Cc1ccccc1)C(=O)O", "OBS_VALUE": 31}

Lab note: next compound to report on.
Tell me measured activity at 10000 µM for NCCCC[C@H](N)C(=O)O please.
31
